test system: OVCAR-5; assay: Growth inhibition of human OVCAR5 cells after 48 hrs by SRB assay; assay type: functional; conditions: OVCAR-5, 48 h, read-out: LC50 (the source's name)
Measured CC50 by item

Compound: CCN1CCN(Cc2ccc(C(c3ccccc3)C34CC5CC(CC(C5)C3)C4)cc2)CC1 (stereo not drawn)
Result unit: nM
CC50: 70

Compound: CN1CCN(Cc2ccc(C(c3ccccc3)C34CC5CC(CC(C5)C3)C4)cc2)CC1 (stereo not drawn)
Result unit: nM
CC50: 57.7

Compound: CN1CCN(CCc2ccc(C(c3ccccc3)C34CC5CC(CC(C5)C3)C4)cc2)CC1 (stereo not drawn)
Result unit: nM
CC50: 62.4

Data origin, for the record: ChEMBL document CHEMBL2202989
